# measurement protocol: BET inhibitor-based combinations targeting novel dependencies in MECOM-rearranged (r) AML: AML-191 cell line (AID 2202236; further: nearly all actives have a fitted effect of over 35% in size; further: potency means the concentration at half of the fitted maximal effect)
# condition: AML-191 viability, CellTiter-Glo luminescence, 48 h; series mostly up to 46 µM
# Protocol: Ecotropic viral insertion site 1 (EVI1) is located on chromosome 3q26.2 as part of the MECOM (MDS and EVI1 complex) locus. […] A collection of 2480 mechanistically annotated dugs (MIPE v5.0) was used to screen four 3q26.2 rearranged AML cell lines and three non-3q26.2 rearranged AML cell lines. […] Cell viability was determined by luminescence based, Cell Titer Glo assay (Promega). […] Luminescence readings were taken using a Viewlux (PerkinElmer) with a 2 s exposure time per plate. […]
Results filed as inconclusive are left out. The source made the active and inactive calls. The call rests on the fitted dose curve; in most records, active means well fitted inhibition curve with a large enough effect; inconclusive means small, poorly fitted or top-dose-only effect; inactive means flat fitted curve, though single readings scatter.
measure: Potency

INSERT INTO results (line_notation, measure, observed_result) VALUES
  ('CC(=O)c1cc2c(o1)C(=O)c1ccccc1C2=O', 'Potency', '2.35 µM (active)'),
  ('C[C@H]1[C@H](C)CC[C@]2(C(=O)O)CC[C@]3(C)C(=CC[C@@H]4[C@@]5(C)CC[C@H](O)C(C)(C)[C@@H]5CC[C@]43C)[C@H]12', 'Potency', 'inactive'),
  ('CNC(=O)[C@@H](NC(=O)[C@H](CC(C)C)[C@H](O)C(=O)NO)C(C)(C)C', 'Potency', '20.9 µM (active)'),
  ('CC(C)(C(=O)NCC(F)(F)C(F)(F)F)C(=O)N[C@@H]1C(=O)Nc2ccccc2-c2ccccc21', 'Potency', 'inactive');

Source of measurements: PubChem BioAssay (NCATS)
